Experiment: self-splicing fitness, log relative to wild type (ln ratio); higher = more splicing; Tetrahymena group I intron in knt gene, E. coli kanamycin selection, DiMSum; sequences stand for … in CUCUCU…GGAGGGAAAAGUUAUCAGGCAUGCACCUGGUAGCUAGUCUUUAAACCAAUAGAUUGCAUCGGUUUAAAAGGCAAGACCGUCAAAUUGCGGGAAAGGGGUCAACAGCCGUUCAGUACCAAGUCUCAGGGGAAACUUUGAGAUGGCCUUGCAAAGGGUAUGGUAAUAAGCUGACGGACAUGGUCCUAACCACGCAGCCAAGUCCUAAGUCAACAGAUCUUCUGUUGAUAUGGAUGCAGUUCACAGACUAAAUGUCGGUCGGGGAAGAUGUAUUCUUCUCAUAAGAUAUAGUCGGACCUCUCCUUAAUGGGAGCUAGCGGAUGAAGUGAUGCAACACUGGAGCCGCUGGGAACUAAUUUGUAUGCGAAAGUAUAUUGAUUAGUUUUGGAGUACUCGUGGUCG;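 further: selection with 25 µg/mL kanamycin versus none on LB agar overnight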
Settings: 37 °C
endpoint-name: self-splicing fitness (ln)
Please respond with just the number, no unit label.

sequence-text | self-splicing fitness (ln)
CGUGAGCAAUAUUACGUUAG | -1
CGAGAGCAAUAUUACGCCAA | -1.99
AAAAAGCAAUAUUACGAGGC | -2.57

(Q) I'd like to know its self-splicing fitness (ln). The sequence in question is `GUUAAGCAAUAUUACGAGUG`
(A) -1.84

(Q) I have this sequence here, `ACUUAGCAAUAUUACGCAAC` , and I need its recorded self-splicing fitness (ln).
(A) -1.72

(Q) So what's the measured self-splicing fitness (ln) for this one? `ACACAGCAAUAUUACGAAUG`
(A) -1.08

(Q) # input sequence: `CGAAAGCAAUAUUACGAGAU` ; wanted: its self-splicing fitness (ln)
(A) -1.55

(Q) # self-splicing fitness (ln) lookup, item `CGAUAGCAAUAUUACGCCUC`
(A) -1.74

(Q) Please report the recorded self-splicing fitness (ln) for `UCCUAGCAAUAUUACGGGUU` .
(A) -1.78

(Q) Consider the sequence `UCUGAGCAAUAUUACGAAAU` and give its measured self-splicing fitness (ln).
(A) -2.24

(Q) Quick check: self-splicing fitness (ln) of `AGCCAGCAAUAUUACGGAUG` ?
(A) -0.824

----------
Assay: self-splicing fitness, log relative to wild type (ln ratio); higher = more splicing; Tetrahymena group I intron in knt gene, E. coli kanamycin selection, DiMSum; sequences stand for … in CUCUCU…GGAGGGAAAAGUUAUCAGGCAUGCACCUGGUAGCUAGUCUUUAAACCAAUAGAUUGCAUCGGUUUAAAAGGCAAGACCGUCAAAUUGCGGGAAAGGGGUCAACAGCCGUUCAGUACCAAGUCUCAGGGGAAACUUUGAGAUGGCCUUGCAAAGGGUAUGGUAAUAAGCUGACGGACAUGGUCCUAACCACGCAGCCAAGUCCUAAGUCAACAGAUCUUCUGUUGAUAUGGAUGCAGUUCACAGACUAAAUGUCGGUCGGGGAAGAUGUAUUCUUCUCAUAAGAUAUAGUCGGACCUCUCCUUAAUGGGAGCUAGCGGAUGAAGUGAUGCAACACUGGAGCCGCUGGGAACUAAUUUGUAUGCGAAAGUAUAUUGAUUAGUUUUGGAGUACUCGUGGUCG
Settings: 37 °C
Attribute: self-splicing fitness (ln)

Below, each entry is followed by its recorded self-splicing fitness (ln) result.
sequence-text | result
UUAGAGCAAUAUUACGGGAG | -1.32
AAUAAGCAAUAUUACGAAAU | -1.4

(Q) Reported self-splicing fitness (ln), sequence `AGACAGCAAUAUUACGGUUC` : ____
(A) -1.05

(Q) # query: self-splicing fitness (ln) of entry `AAUAAGCAAUAUUACGGCGU`
(A) 0.242

(Q) What does the record list as self-splicing fitness (ln) for `AACAAGCAAUAUUACGUUUU` ?
(A) -1.03

(Q) Requested read-out: self-splicing fitness (ln). Entry: `UUAUAGCAAUAUUACGAUUC`
(A) -1.17

(Q) Which self-splicing fitness (ln) reading was recorded for the sequence `CGGCAGCAAUAUUACGUUGA` ?
(A) -1.8

(Q) Any idea what self-splicing fitness (ln) was measured for `AAGGAGCAAUAUUACGAUUC` ?
(A) -1.78

----------
self-splicing fitness (ln) values by entry
Experiment: self-splicing fitness, log relative to wild type (ln ratio); higher = more splicing; Tetrahymena group I intron in knt gene, E. coli kanamycin selection, DiMSum; sequences stand for … in CUCUCU…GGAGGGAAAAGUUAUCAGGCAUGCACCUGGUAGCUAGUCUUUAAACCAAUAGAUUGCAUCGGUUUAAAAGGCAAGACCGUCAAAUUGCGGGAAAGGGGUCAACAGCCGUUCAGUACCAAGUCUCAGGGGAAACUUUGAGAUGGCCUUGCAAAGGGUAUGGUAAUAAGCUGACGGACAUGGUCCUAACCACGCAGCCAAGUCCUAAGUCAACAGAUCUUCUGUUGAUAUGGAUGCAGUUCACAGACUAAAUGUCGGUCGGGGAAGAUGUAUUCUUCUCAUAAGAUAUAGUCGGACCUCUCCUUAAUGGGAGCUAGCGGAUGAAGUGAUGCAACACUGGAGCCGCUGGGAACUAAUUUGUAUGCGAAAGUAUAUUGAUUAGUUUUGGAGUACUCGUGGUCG
Details: 30 °C
Answer using only a numeral; do not append any unit.

Use these answered entries as a reference point.
sequence-text | quantitative-readout
UACAAGCAAUAUUACGAUAG | -2.16
GUCCAGCAAUAUUACGCGUU | -0.325
CCGCAGCAAUAUUACGCUUA | -3.07
AUUCAGCAAUAUUACGGUCA | -0.711
AACUAGCAAUAUUACGGUAG | -2.06
AGCUAGCAAUAUUACGAGAU | -3.17
GUCCAGCAAUAUUACGGUAG | -2.08
AAUCAGCAAUAUUACGUGAG | -0.184

(Q) Endpoint output: self-splicing fitness (ln) of `AGACAGCAAUAUUACGUUUA` . Value?
(A) -2.45

(Q) Can you look up the measured self-splicing fitness (ln) of `CAUCAGCAAUAUUACGAACC` for me?
(A) -2.59

(Q) Report self-splicing fitness (ln) for `CGCAAGCAAUAUUACGGCCG` please.
(A) -1.1

(Q) Entry `ACUUAGCAAUAUUACGUGAC` has what self-splicing fitness (ln)?
(A) -2.05

(Q) Query: self-splicing fitness (ln); subject: `CCGCAGCAAUAUUACGGCCG`
(A) -0.461

(Q) Name the recorded self-splicing fitness (ln) for `UUAGAGCAAUAUUACGAAUG` .
(A) -2.2

(Q) // query self-splicing fitness (ln) value for entry `UUGGAGCAAUAUUACGGUAA`
(A) -1.27

(Q) Looking for the measured self-splicing fitness (ln) of `AUCUAGCAAUAUUACGACCU` , can you help?
(A) -0.471

(Q) Can you share its self-splicing fitness (ln)? I mean this sequence: `ACAGAGCAAUAUUACGGCGC`
(A) -1.6

(Q) Item under review: `UCAUAGCAAUAUUACGAACU` . Reported self-splicing fitness (ln)?
(A) -2.36

(Q) Field request: self-splicing fitness (ln) | item: `GUAGAGCAAUAUUACGGGGG`
(A) -2.82

(Q) Which self-splicing fitness (ln) reading was recorded for the sequence `UGGAAGCAAUAUUACGGUUC` ?
(A) -3.84

----------
Assay: self-splicing fitness, log relative to wild type (ln ratio); higher = more splicing; Tetrahymena group I intron in knt gene, E. coli kanamycin selection, DiMSum; sequences stand for … in CUCUCU…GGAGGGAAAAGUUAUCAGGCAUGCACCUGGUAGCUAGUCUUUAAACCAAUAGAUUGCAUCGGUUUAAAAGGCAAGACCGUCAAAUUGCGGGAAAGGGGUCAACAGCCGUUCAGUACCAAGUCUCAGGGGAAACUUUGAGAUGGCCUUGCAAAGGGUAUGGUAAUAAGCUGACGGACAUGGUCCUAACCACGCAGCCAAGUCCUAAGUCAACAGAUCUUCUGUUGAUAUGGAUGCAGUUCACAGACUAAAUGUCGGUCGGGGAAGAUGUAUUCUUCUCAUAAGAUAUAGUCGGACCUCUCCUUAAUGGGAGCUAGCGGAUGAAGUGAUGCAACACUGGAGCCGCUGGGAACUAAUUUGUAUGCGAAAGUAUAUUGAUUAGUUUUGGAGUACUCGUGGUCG
Conditions: 37 °C
endpoint-name: self-splicing fitness (ln)
When you answer, write just the number.

Previously resolved entries follow.
sequence-text | self-splicing fitness (ln)
AGCGAGCAAUAUUACGUAAU | -2.04
UGCGAGCAAUAUUACGAGGC | -2
CAGAAGCAAUAUUACGGAUU | -2.47

(Q) # self-splicing fitness (ln) lookup, item `AGUCAGCAAUAUUACGUAGA`
(A) -0.757

(Q) Return reported self-splicing fitness (ln); argument: `CUUCAGCAAUAUUACGCAGA`
(A) -2.18

(Q) Entry `AGUUAGCAAUAUUACGUUUU` has what self-splicing fitness (ln)?
(A) -1.41

(Q) Which self-splicing fitness (ln) value belongs to `ACCCAGCAAUAUUACGCUUC` ?
(A) -1

Hey, just so you know, these numbers are from the supplement of paper PMC7877785.
